- Test system: CYP90D1 (Arabidopsis thaliana, UniProt Q94IA6)
- Construct: CYP90D1 mature protein, expressed in E. coli from pCold-GST; fusion cleaved with HRV3C protease
- Sequence (Q94IA6 whole entry, the tested form may be a part): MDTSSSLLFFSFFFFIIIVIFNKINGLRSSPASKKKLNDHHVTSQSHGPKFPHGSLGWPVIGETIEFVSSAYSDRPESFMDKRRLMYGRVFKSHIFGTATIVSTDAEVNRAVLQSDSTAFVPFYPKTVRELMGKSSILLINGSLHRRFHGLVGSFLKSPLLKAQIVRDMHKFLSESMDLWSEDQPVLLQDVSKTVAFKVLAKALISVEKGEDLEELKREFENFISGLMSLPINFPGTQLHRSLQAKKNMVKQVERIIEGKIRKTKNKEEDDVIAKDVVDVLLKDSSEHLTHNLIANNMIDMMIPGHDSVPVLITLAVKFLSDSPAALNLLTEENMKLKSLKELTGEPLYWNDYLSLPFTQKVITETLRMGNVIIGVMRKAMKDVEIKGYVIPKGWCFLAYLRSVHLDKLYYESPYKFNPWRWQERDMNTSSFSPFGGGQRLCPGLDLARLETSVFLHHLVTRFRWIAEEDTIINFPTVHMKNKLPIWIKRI
- Experimental protocol: optical difference spectroscopy (type II binding spectrum) titration of purified recombinant CYP90D1
Measured metric: Kd

Item: CCOc1ccccc1OCC1COC(Cn2cncn2)(c2ccc(Cl)cc2)O1 (stereo not shown) | Kd: ~790 nM
